Test: label from the status in PepcDB records
reported endpoint: protein production

>>> assay_result("MIKLIVSDLDETLVGPDGNVSEENIEAIKKATQKGVKFVPNTGRGFESVQPLLETLGLKGKANEFVISYNGGVIVENQNFDVIQANAFSFEQATQIFDITKQHLENSTHIYTLNDVYVFNEVEEDNEYIRSRGVRTIRFEHDNLDTLKDEPIFKIITMNPDFNKRKQIKAEVLDKVNFDVNATFSSDRYTEFNLKGVDKGQASLELGRHLGIKADEIMALGDNNNDVAMLKSVGLPVVVSNASASAKANAKYIAKGNYETGVAEAINKFVLGE")
"failed"
>>> assay_result("MLSEQALELIDIVARVGSFTAAANRLHKVPSAVSYAVKQIEEELGVVLFERHHRSVTLTPAGGHFVKQARNLLTQIDEMKRGTQRVANGWQPTLSIALDNIVRADRISVLIADFYRHFHDIELIIRIEVFNGVWEALATGHSDVAIGATTAIPVGGVFQYKDMGDIEWAFLVSKNHPLANIDRPLTDEELRPFPSICLEDTSREIPKRMTWLLENQRRLVVPDWIRAINCFREGLGIGYMPVHLASVFIKAGALVEKQLENPKLTSPCCLAWNADKMSPALAWVLDYLGDTDKLHREWLA")
"failed"
>>> assay_result("MNSILPSVSTLAVGARPARPNVSVVMVVYRTGEALVESIRHVLAEPLVDEFIIVDNGSSSRDEDMLRSLALTEPRVVLKQGHGNVGFARGANLGAVTAGGEYIVFLNPDANLQPSCVASLVTAFKGQPVPTIVGARVLNTDGSEQRGGRRGDVTPISTVLSFGQLTRRYPKLAGFEIHRENEPLPGAPVPMPTISGACFAMRRADFVALNGFDEGYFLHVEDIDLCWRARRAGGQVLFQPNAEVVHLGHTSLEHPVKVEFHKGVGLTRYFIKRADSLQLFAAAVLLAPAIMLMSVCRPLLWKLTGRPI")
"failed"
